target: HLA-A*29:02; test: IEDB peptide-MHC binding, purified MHC/competitive/fluorescence; filed as Kd, often an IC50 or EC50 that approximates it; bounds were set here for any values at or beyond the usual limits of such assays; settings: source organism: Influenza A virus (A/red knot/Delaware/2561/1987(H10N5))
pKd: −log10 of the molar value.
OBSERVABLE: pKd

Entry `VMTDGPANK` — recorded pKd = ≤ 4.70

###

molecular target: HLA-A*24:02; experiment: IEDB peptide-MHC binding, purified MHC/competitive/fluorescence; bounds were set here for any values at or beyond the usual limits of such assays; conditions: source organism: Vaccinia virus WR
For each entry below, report its pIC50 value.
Value format note: pIC50 is -log10 of concentration (mol/L); just state the number.

Entry `PFIRNPNKM` — recorded pIC50 = 7.18

Entry `ILPWTKISE` — recorded pIC50 = 4.48

###

molecular target: HLA-A*68:01; test: IEDB peptide-MHC binding, purified MHC/competitive/radioactivity; filed as Kd, often an IC50 or EC50 that approximates it; bounds were set here for any values at or beyond the usual limits of such assays; conditions: source organism: Dengue virus 3 Singapore/8120/1995
OBSERVABLE: Kd (nM)
Provide the reading as a plain figure in nM.

Entry `ATLAFHLTSR` — recorded Kd = 50.9

###

biological target: HLA-A*68:01; test: IEDB peptide-MHC binding, purified MHC/competitive/radioactivity; filed as Kd, often an IC50 or EC50 that approximates it; bounds were set here for any values at or beyond the usual limits of such assays; details: source organism: Lassa virus GA391
OBSERVABLE: pKd
Value format note: pKd is -log10 of concentration (mol/L); just state the number.

Entry `SLMSIISTFH` — recorded pKd = 5.47

###

target: HLA-A*69:01; assay: IEDB peptide-MHC binding, purified MHC/direct/fluorescence; filed as Kd, often an IC50 or EC50 that approximates it; bounds were set here for any values at or beyond the usual limits of such assays; settings: source organism: Influenza A virus (A/turkey/Minnesota/511/1978(H9N2))
pKd: −log10 of the molar value.
OBSERVABLE: pKd

Here `DLLENLQAY` was tested on HLA-A*69:01, and its pKd came to ≤ 4.70

###

molecular target: HLA-B*48:01; test: IEDB peptide-MHC binding, purified MHC/direct/fluorescence; filed as Kd, often an IC50 or EC50 that approximates it; bounds were set here for any values at or beyond the usual limits of such assays; settings: source organism: Orthohantavirus sinnombreense
pKd: −log10 of the molar value.
OBSERVABLE: pKd

Here `FRYKSRCYV` was tested on HLA-B*48:01, and its pKd came to ≤ 4.70

###

molecular target: HLA-B*07:02; test: IEDB peptide-MHC binding, purified MHC/direct/fluorescence; filed as Kd, often an IC50 or EC50 that approximates it; bounds were set here for any values at or beyond the usual limits of such assays; conditions: source organism: Influenza A virus (A/Wisconsin/4755/1994(H1N1))
OBSERVABLE: Kd

Entry `YRYTYRCHR` — recorded Kd = ≥ 20 µM

###

target: HLA-B*48:01; test: IEDB peptide-MHC binding, purified MHC/direct/fluorescence; filed as Kd, often an IC50 or EC50 that approximates it; bounds were set here for any values at or beyond the usual limits of such assays; conditions: source organism: Salmonella enterica
pKd: −log10 of the molar value.
OBSERVABLE: pKd

Entry `NVHRSQFAQ` — recorded pKd = ≤ 4.70

###

molecular target: HLA-A*11:01; test: IEDB peptide-MHC binding, purified MHC/competitive/radioactivity; filed as Kd, often an IC50 or EC50 that approximates it; bounds were set here for any values at or beyond the usual limits of such assays; details: source organism: Dengue virus 2 Thailand/NGS-C/1944
OBSERVABLE: Kd

Here `MVLLQMENK` was tested on HLA-A*11:01, and its Kd came to 227 nM

###

biological target: HLA-B*15:17; experiment: IEDB peptide-MHC binding, purified MHC/competitive/fluorescence; filed as Kd, often an IC50 or EC50 that approximates it; bounds were set here for any values at or beyond the usual limits of such assays; conditions: source organism: Shigella boydii CDC 3083-94
pKd: −log10 of the molar value.
OBSERVABLE: pKd

Entry `MAMTGLPQA` — recorded pKd = ≤ 4.70

###

biological target: HLA-B*27:05; assay: IEDB peptide-MHC binding, purified MHC/direct/fluorescence; filed as Kd, often an IC50 or EC50 that approximates it; bounds were set here for any values at or beyond the usual limits of such assays; conditions: source organism: Influenza A virus (A/New Caledonia/20/1999(H1N1))
OBSERVABLE: Kd (µM)
Provide the reading as a plain figure in µM.

Entry `WMACHSAAF` — recorded Kd = 6.3

###

target: HLA-B*35:01; assay: IEDB peptide-MHC binding, cellular MHC/competitive/fluorescence; bounds were set here for any values at or beyond the usual limits of such assays; conditions: source organism: Mycobacterium tuberculosis H37Rv
OBSERVABLE: pIC50
Value format note: pIC50 is -log10 of concentration (mol/L); just state the number.

Entry `LPAKFLEGF` — recorded pIC50 = 6.15

###

target: HLA-A*01:01; assay: IEDB peptide-MHC binding, purified MHC/direct/fluorescence; filed as Kd, often an IC50 or EC50 that approximates it; bounds were set here for any values at or beyond the usual limits of such assays; details: source organism: Coxiella burnetii
pKd: −log10 of the molar value.
OBSERVABLE: pKd

Here `ITLYEYDHF` was tested on HLA-A*01:01, and its pKd came to ≤ 4.70

###

target: HLA-B*27:03; experiment: IEDB peptide-MHC binding, purified MHC/direct/fluorescence; filed as Kd, often an IC50 or EC50 that approximates it; bounds were set here for any values at or beyond the usual limits of such assays; conditions: source organism: Encephalitozoon cuniculi GB-M1
For each entry below, report its Kd value.

Entry `HPYVFCALL` — recorded Kd = ≥ 20 µM

Entry `SPLPITLKY` — recorded Kd = ≥ 20 µM

###

biological target: HLA-A*29:02; assay: IEDB peptide-MHC binding, purified MHC/competitive/radioactivity; filed as Kd, often an IC50 or EC50 that approximates it; bounds were set here for any values at or beyond the usual limits of such assays; conditions: source organism: Mammarenavirus choriomeningitidis
OBSERVABLE: pKd
Value format note: pKd is -log10 of concentration (mol/L); just state the number.

Entry `TTDVKAAVI` — recorded pKd = 4.98

###

biological target: HLA-A*02:01; experiment: IEDB peptide-MHC binding, purified MHC/direct/fluorescence; filed as Kd, often an IC50 or EC50 that approximates it; bounds were set here for any values at or beyond the usual limits of such assays; conditions: source organism: Hyphomonas neptunium
OBSERVABLE: Kd (µM)
Provide the reading as a plain figure in µM.

Entry `ALTPPFHPY` — recorded Kd = 9

###

biological target: HLA-A*01:01; experiment: IEDB peptide-MHC binding, purified MHC/direct/fluorescence; filed as Kd, often an IC50 or EC50 that approximates it; bounds were set here for any values at or beyond the usual limits of such assays; conditions: source organism: Influenza A virus (A/New Caledonia/20/1999(H1N1))
pKd: −log10 of the molar value.
OBSERVABLE: pKd

Here `WMACHSAAF` was tested on HLA-A*01:01, and its pKd came to ≤ 4.70

###

molecular target: HLA-A*02:01; assay: IEDB peptide-MHC binding, purified MHC/competitive/fluorescence; filed as Kd, often an IC50 or EC50 that approximates it; bounds were set here for any values at or beyond the usual limits of such assays; settings: source organism: Shigella boydii CDC 3083-94
OBSERVABLE: Kd (pM)
Provide the reading as a plain figure in pM.

Entry `MAMTGLPQA` — recorded Kd = 800

###

target: HLA-B*35:01; assay: IEDB peptide-MHC binding, purified MHC/direct/fluorescence; filed as Kd, often an IC50 or EC50 that approximates it; bounds were set here for any values at or beyond the usual limits of such assays; conditions: source organism: Rickettsia prowazekii
OBSERVABLE: pKd
Value format note: pKd is -log10 of concentration (mol/L); just state the number.

Entry `FPFWGCFVS` — recorded pKd = 8.70

###

target: HLA-B*15:17; test: IEDB peptide-MHC binding, purified MHC/competitive/fluorescence; filed as Kd, often an IC50 or EC50 that approximates it; bounds were set here for any values at or beyond the usual limits of such assays; conditions: source organism: Reston ebolavirus
pKd: −log10 of the molar value.
OBSERVABLE: pKd

Entry `RTYSLLNRK` — recorded pKd = ≤ 4.70

###

target: HLA-B*44:03; assay: IEDB peptide-MHC binding, purified MHC/competitive/radioactivity; filed as Kd, often an IC50 or EC50 that approximates it; bounds were set here for any values at or beyond the usual limits of such assays; conditions: source organism: Lymphocytic choriomeningitis virus (strain Armstrong)
OBSERVABLE: Kd (µM)
Provide the reading as a plain figure in µM.

Entry `REAVESCPL` — recorded Kd = 13.2
